- measurementTarget: PKR (Homo sapiens (Human), UniProt P19525)
- Sequence (P19525 whole entry): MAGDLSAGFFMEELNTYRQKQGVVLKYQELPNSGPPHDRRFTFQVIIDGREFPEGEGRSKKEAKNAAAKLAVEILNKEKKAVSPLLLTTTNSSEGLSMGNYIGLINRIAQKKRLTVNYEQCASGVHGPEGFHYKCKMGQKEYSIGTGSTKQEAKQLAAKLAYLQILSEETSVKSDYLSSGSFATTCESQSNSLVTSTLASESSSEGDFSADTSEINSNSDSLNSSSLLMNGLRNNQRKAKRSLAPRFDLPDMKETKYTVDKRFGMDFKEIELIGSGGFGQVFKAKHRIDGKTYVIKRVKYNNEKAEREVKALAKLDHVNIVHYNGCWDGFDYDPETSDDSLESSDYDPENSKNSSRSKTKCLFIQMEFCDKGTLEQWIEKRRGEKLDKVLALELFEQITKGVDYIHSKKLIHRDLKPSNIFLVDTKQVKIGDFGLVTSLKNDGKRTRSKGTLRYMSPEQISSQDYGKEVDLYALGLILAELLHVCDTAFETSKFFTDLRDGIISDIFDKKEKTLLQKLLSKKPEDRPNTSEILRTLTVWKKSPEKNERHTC
- methodSummary: KiNativ assay
- Assay type: binding
- studyConditions: H929 live cell, read-out: inhibition (10 μM)

{"smilesCode": "Nc1ncc(-c2ccc(NS(=O)(=O)C3CC3)cc2OC2CCCCC2)cc1-c1ccc2c(c1)CCNC2=O", "displayUnit": "%", "inhibition at 10 µM": -7.6}
{"smilesCode": "Nc1ncc(-c2cccc([N+](=O)[O-])c2F)cc1-c1ccc2c(c1)CCNC2=O", "displayUnit": "%", "inhibition at 10 µM": -36.7}
{"smilesCode": "COc1cc(NS(=O)(=O)C2CC2)ccc1-c1cnc(N)c(-c2ccc3c(c2)CCNC3=O)c1", "displayUnit": "%", "inhibition at 10 µM": 1.8}
{"smilesCode": "CN(C1CC1)S(=O)(=O)c1ccc(-c2cnc(N)c(-c3ccc4c(c3)CCNC4=O)c2)c(F)c1", "displayUnit": "%", "inhibition at 10 µM": -0.8}
{"smilesCode": "Nc1ncc(-c2ccc(NS(=O)(=O)C3CC3)cc2F)cc1-c1ccc2c(c1)CCNC2=O", "displayUnit": "%", "inhibition at 10 µM": 3.8}
{"smilesCode": "Nc1ncc(-c2cccc3ncsc23)cc1-c1ccc2c(c1)CCNC2=O", "displayUnit": "%", "inhibition at 10 µM": -21.7}

###

- measurementTarget: PKCi (Homo sapiens (Human), UniProt P41743)
- Sequence (P41743 whole entry): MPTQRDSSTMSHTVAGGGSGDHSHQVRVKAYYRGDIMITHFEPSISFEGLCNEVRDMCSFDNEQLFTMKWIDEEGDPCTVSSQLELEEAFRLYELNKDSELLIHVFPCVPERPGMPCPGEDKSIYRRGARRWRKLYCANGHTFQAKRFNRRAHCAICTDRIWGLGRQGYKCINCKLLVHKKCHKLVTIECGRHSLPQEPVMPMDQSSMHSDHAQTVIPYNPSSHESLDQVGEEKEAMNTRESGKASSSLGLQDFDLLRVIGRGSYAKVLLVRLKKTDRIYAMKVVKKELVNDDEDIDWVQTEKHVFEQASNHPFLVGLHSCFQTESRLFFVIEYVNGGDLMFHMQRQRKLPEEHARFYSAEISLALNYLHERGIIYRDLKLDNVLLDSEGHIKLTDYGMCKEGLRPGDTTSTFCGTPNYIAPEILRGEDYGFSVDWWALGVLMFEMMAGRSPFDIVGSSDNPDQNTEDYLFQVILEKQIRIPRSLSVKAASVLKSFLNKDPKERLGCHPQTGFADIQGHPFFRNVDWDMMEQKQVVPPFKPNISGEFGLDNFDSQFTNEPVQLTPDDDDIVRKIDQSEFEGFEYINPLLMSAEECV
- methodSummary: KiNativ assay
- Type: binding
- studyConditions: H929 live cell, read-out: inhibition (10 μM)

{"compound": "Nc1ncc(-c2ccc(NS(=O)(=O)C3CC3)cc2F)cc1-c1ccc2c(c1)CCNC2=O [Compound I-51]", "measurementTarget": "PKCi (Homo sapiens (Human), UniProt P41743)", "inhibition at 10 µM, %": -49.1}
{"compound": "COc1cc(NS(=O)(=O)C2CC2)ccc1-c1cnc(N)c(-c2ccc3c(c2)CCNC3=O)c1 [Compound I-50]", "measurementTarget": "PKCi (Homo sapiens (Human), UniProt P41743)", "inhibition at 10 µM, %": -15}
{"compound": "Nc1ncc(-c2ccc(NS(=O)(=O)C3CC3)cc2OC2CCCCC2)cc1-c1ccc2c(c1)CCNC2=O [Compound I-65]", "measurementTarget": "PKCi (Homo sapiens (Human), UniProt P41743)", "inhibition at 10 µM, %": -41.2}
{"compound": "CN(C1CC1)S(=O)(=O)c1ccc(-c2cnc(N)c(-c3ccc4c(c3)CCNC4=O)c2)c(F)c1 [Compound I-28]", "measurementTarget": "PKCi (Homo sapiens (Human), UniProt P41743)", "inhibition at 10 µM, %": 12.7}
{"compound": "Nc1ncc(-c2cccc3ncsc23)cc1-c1ccc2c(c1)CCNC2=O [Compound I-13]", "measurementTarget": "PKCi (Homo sapiens (Human), UniProt P41743)", "inhibition at 10 µM, %": 21.4}
{"compound": "Nc1ncc(-c2cccc([N+](=O)[O-])c2F)cc1-c1ccc2c(c1)CCNC2=O [Compound I-9]", "measurementTarget": "PKCi (Homo sapiens (Human), UniProt P41743)", "inhibition at 10 µM, %": 18.5}

###

Listed next: entries and their corresponding inhibition at 10 µM.
- measurementTarget: MAP2K5 (Homo sapiens (Human), UniProt Q13163)
- Sequence (Q13163 whole entry): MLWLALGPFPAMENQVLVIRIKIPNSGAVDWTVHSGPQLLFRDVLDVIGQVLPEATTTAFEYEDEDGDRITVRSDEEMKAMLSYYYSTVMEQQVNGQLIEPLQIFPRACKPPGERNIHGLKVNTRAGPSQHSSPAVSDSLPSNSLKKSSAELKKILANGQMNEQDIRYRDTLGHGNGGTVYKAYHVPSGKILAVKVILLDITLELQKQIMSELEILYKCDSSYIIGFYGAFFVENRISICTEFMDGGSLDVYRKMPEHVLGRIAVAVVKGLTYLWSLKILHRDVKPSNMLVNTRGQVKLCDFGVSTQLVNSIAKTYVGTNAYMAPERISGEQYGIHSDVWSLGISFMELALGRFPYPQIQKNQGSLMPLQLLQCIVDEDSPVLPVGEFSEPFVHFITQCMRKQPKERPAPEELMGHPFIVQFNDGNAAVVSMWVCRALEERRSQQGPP
- methodSummary: KiNativ assay
- Type: binding
- studyConditions: H929 live cell, read-out: inhibition (10 μM)

{"compound": "Nc1ncc(-c2ccc(NS(=O)(=O)C3CC3)cc2F)cc1-c1ccc2c(c1)CCNC2=O [Compound I-51]", "inhibition at 10 µM": "-4%"}
{"compound": "Nc1ncc(-c2ccc(NS(=O)(=O)C3CC3)cc2OC2CCCCC2)cc1-c1ccc2c(c1)CCNC2=O [Compound I-65]", "inhibition at 10 µM": "15%"}
{"compound": "COc1cc(NS(=O)(=O)C2CC2)ccc1-c1cnc(N)c(-c2ccc3c(c2)CCNC3=O)c1 [Compound I-50]", "inhibition at 10 µM": "-12.1%"}
{"compound": "Nc1ncc(-c2cccc3ncsc23)cc1-c1ccc2c(c1)CCNC2=O [Compound I-13]", "inhibition at 10 µM": "13.4%"}
{"compound": "CN(C1CC1)S(=O)(=O)c1ccc(-c2cnc(N)c(-c3ccc4c(c3)CCNC4=O)c2)c(F)c1 [Compound I-28]", "inhibition at 10 µM": "58%"}
{"compound": "Nc1ncc(-c2cccc([N+](=O)[O-])c2F)cc1-c1ccc2c(c1)CCNC2=O [Compound I-9]", "inhibition at 10 µM": "75.2%"}
